# Test system: SK-MEL-28 melanoma
# Experimental protocol: NCI-60 one-dose screen, 48 h
# Condition set: 10 µM unless noted
About 83,000 compounds went through this panel and 20% of them were active in at least one assay; those are over-represented in the sample as a whole. Activity calls are given as the source filed them. How the source made its calls: active means growth percent below 10; inactive means the rest.
Pick one: y = active, n = inactive

The following molecules have reported results that may help.
Molecule | Assayed system | Classification
CCN(CC)/C([O-])=c1\cccc\c1=C1\N=C(c2ccccc2)N=C1[n+]1ccc(-c2ccccc2)cc1 | SK-MEL-28 melanoma | n
CCCCCCCC/C=C\CCCCCCCCOc1ccccc1CC(=O)NCC[N+]1(C)CCOCC1 | SK-MEL-28 melanoma | n
CCN(C(=O)N1CCN(c2cc3c(cc2F)c(=O)c(C(=O)O)cn3C2CC2)CC1)c1nc(-c2ccccc2)cs1 | SK-MEL-28 melanoma | n

Lab log entry: COc1cc(/C=C/C(=O)c2ccc(NC(=O)CSc3nnc(-c4cc(-c5ccccc5)nc5ccccc45)n3-c3ccccc3)cc2)cc(OC)c1OC — outcome as called in the assay?
n

Lab log entry: O=C(Oc1ccc(CO[N+](=O)[O-])cc1)c1ccccc1 — outcome as called in the assay?
y

Lab log entry: COc1nc2ccc(C)cc2cc1/C=[N+](\[O-])c1ccccc1 — outcome as called in the assay?
n

Lab log entry: COc1ccc(-c2cc3cnc4ccccc4c3oc2=O)cc1 — outcome as called in the assay?
n

Lab log entry: O=C1/C(=C/c2cn(-c3ccccc3)nc2-c2ccccc2)SC(=S)N1c1ccc(Cl)cc1 — outcome as called in the assay?
n

Lab log entry: CCOC(=O)c1cnn(-c2ccc(S(N)(=O)=O)cc2)c1N — outcome as called in the assay?
n

Lab log entry: O=C(Nc1ccc2ncsc2c1)c1csc(Nc2ccc3[nH]ncc3c2)n1 — outcome as called in the assay?
n

Lab log entry: CN1C(=O)N(C)C2(c3ccccc3)N(CC(=O)Nc3ccccc3O)C(=O)NC12c1ccccc1 (centres undefined) — outcome as called in the assay?
n

Lab log entry: COc1cc(-c2nc(SCCC(C)C)nc(Nc3ccc(F)cc3)c2C#N)cc(OC)c1OC — outcome as called in the assay?
n

Lab log entry: Cn1cc2c(=O)nc3c(-c4nc5ccccc5[nH]4)n[nH]n3c2n1 — outcome as called in the assay?
n

Lab log entry: C=CCN1C=CC(=O)[C@H](O[Si](C)(C)C(C)(C)C)[C@@H]1/C=C/c1ccccc1 — outcome as called in the assay?
y

Lab log entry: O=C(Nc1ccc2ccccc2c1)c1cc2ccccc2cc1O — outcome as called in the assay?
n

Lab log entry: Cc1c(C(=O)OCCCCOC(=O)c2c(C)n(C)c3scc[n+]23)[n+]2ccsc2n1C — outcome as called in the assay?
n

Lab log entry: Clc1cccc(Nc2ncnc3ccc(-c4cncc(-n5cnnn5)c4)cc23)c1 — outcome as called in the assay?
n

Lab log entry: O=C(Nc1ncc(Cc2cccc(C(F)(F)F)c2)s1)c1ccc2c(c1)OCCO2 — outcome as called in the assay?
n

Lab log entry: COc1ccc(-c2nnc3n(C)c(=O)c4ccccc4n23)cc1O — outcome as called in the assay?
n

Lab log entry: CCOC(=O)C1=C(C)N=C2SC=C(c3ccc(F)cc3)N2[C@H]1c1cn(-c2ccccc2)nc1-c1ccc(Cl)cc1 — outcome as called in the assay?
n

Lab log entry: COc1cc(CO)cc2cc3ccccc3nc12 — outcome as called in the assay?
n

Lab log entry: COc1cc(C=O)ccc1Oc1ccc([N+](=O)[O-])cc1[N+](=O)[O-] — outcome as called in the assay?
n

###

# Test system: NCI-H522 lung
# Experimental protocol: NCI-60 one-dose screen, 48 h (100 = growth as untreated, 0 = no growth, -100 = all killed)
# Condition set: 10 µM unless noted
Compounds without any hit were thinned out: in the full panel of roughly 83,000, 20% have a hit.
Entries whose growth is below 70% take 1; entries at or above 70% take -1.

Compound | Assayed system | Classification
COc1ccc(/C(C)=C(\c2ccc(OCCN3CCCCCC3)cc2)c2ccc(OC(=O)C3CCCCC3)cc2)cc1 | NCI-H522 lung | 1
N=c1ccccn1CCO | NCI-H522 lung | -1
CC1=C2[C@@H](CC1)[C@]1(C)O[C@@](C3CC3)(C[C@H]1OC(=O)CO)[C@H]2OC(=O)/C=C/c1ccccc1 | NCI-H522 lung | -1
CS(=O)(=O)Nc1cc(-c2ccc3ncnc(Nc4ccc(F)c(Cl)c4)c3c2)cnc1Cl | NCI-H522 lung | 1

Problem: For the compound COCCn1cc(-c2nc(-c3cn(CCOC)c4ncccc34)cs2)c2ccccc21 , is growth under 70%?
1

Problem: For the compound COc1cc(/C=C2\C(=O)N(CCCCn3c4ccccc4c(=O)c4ccccc43)c3ccccc32)cc(OC)c1O , is growth under 70%?
1

###

# System: HOP-92 NSCLC
# Experimental protocol: NCI-60 one-dose screen, 48 h (100 = growth as untreated, 0 = no growth, -100 = all killed)
# Condition set: 10 µM unless noted
About 83,000 compounds went through this panel and 20% of them were active in at least one assay; those are over-represented in the sample as a whole.
Catalogue of growth values
Please reply with the bare figure in % and do not write the unit itself.

Completed entries (count: 4):
Compound | growth (%)
CC/C(=C(/c1ccc(O)cc1)c1ccc(OCCN2CCCCCC2)cc1)c1ccc(Cl)cc1 | 69.5
CC(=O)N1N=C(c2ccc(F)cc2)CC1c1sc(N(C)Cc2ccccc2)nc1Cl (stereo not given) | 85.9
CCNC(=S)n1nc(SC)c(C(=O)OCC)c1N | 110
COc1ccc2c(O)c(/C=C3\N=Nc4nc(C)ccc43)oc2c1CC1CCNCC1 | 39.2

Using the record for Cc1ccc(/C=C2\COc3ccc(O)c(O)c3C2=O)cc1 , report its growth.
-18

Using the record for COc1ccc(Nc2nn3c(SCC(=O)c4ccc(C)cc4)nnc3s2)cc1 , report its growth.
83.4

Using the record for CCCCC1=C(Br)C(=O)c2nc(C)ccc2C1=O , report its growth.
-8.03

Using the record for O=C(CC1(O)C(=O)Nc2ccc(Br)cc21)c1ccc(Cl)cc1 (stereo not given) , report its growth.
86.1

Using the record for O=C(CN1C(=O)S/C(=C\C(Cl)=C\c2ccccc2)C1=O)NC1C=CS(=O)(=O)C1 (stereo not given) , report its growth.
37.2

###

# Test system: MDA-MB-231 breast
# Experimental protocol: NCI-60 one-dose screen, 48 h
# Condition set: 10 µM unless noted
The panel holds about 83,000 compounds, 20% with a hit somewhere; the sample as a whole holds those more often. Active and inactive are the calls of the source. The calls were made as follows: active = growth percent below 10; inactive = the rest.
Pick one: 1 (yes) for active, 0 (no) for inactive

The following compounds have reported results that may help.
Compound | Classification
O=C1/C(=C/c2ccccc2)CN(C(=O)C(Cl)Cl)C/C1=C\c1ccccc1 | 1 (yes)
Cc1ccc(-c2nc3nc(-c4ccc(Cl)cc4)nc(N4CCCNCC4)c3o2)cc1 | 1 (yes)
CCCCCCCCN(CCCCCCCC)CC(O)c1cc(Cl)ccc1OC (stereo not given) | 0 (no)
COc1ccc(-c2[nH]c3ccccc3c2-c2ccc(OC)cc2)cc1 | 0 (no)

Lab log entry: Cc1nc2sc(C(=O)Nc3cccc4ccccc34)c(N)c2cc1C(=O)/C=C/c1ccccc1 — outcome as called in the assay?
1 (yes)

Lab log entry: O=c1cc(N/N=C/c2ccc(F)cc2)c2cc(Cl)ccc2[nH]1 — outcome as called in the assay?
0 (no)

Lab log entry: Nc1ccc(-c2ccc(N)c(Br)c2)cc1Br — outcome as called in the assay?
0 (no)

Lab log entry: CN1Cn2c(ccc2C(F)(F)F)C(=O)CS1(=O)=O — outcome as called in the assay?
0 (no)

Lab log entry: CC1(C)C(N)=Nc2cc(OCCCCN3Cc4ccccc4C3)c(OCC3CC3)cc21 — outcome as called in the assay?
0 (no)

Lab log entry: CCCCCO/N=C\c1c2c(O)c3c(O)c(C)c4c(c3c1O)C(=O)C(C)(O/C=C\C(OC)C(C)C(OC(C)=O)C(C)C(O)C(C)C(O)C(C)/C=C\C=C(\C)C(=O)N2)O4 (stereo not given) — outcome as called in the assay?
0 (no)

###

# System: NCI-H460 lung
# Experimental protocol: NCI-60 one-dose screen, 48 h
# Condition set: 10 µM unless noted
This is part of a sample that, as a whole, favours compounds with a hit. Of some 83,000 tested, about 20% had one in any assay. Activity calls are given as the source filed them. Rule for the calls: active = growth percent below 10; inactive = the rest.
Pick one: active, inactive

The following molecules have reported results that may help.
Molecule | Assayed system | Classification
CC/C(=C(/c1ccc(O)cc1)c1ccc(OCCN2CCCCCC2)cc1)c1ccc(Cl)cc1 | NCI-H460 lung | inactive
Brc1ccc(/C=C(/C2=NCCN2)n2ccc3ccccc32)cc1 | NCI-H460 lung | inactive
COc1cc(/C=C(/c2ccccc2)[N+](=O)[O-])c(OC)c2c1OCO2 | NCI-H460 lung | active

Lab log entry: C/C=C(/C)C(=O)O[C@@H]1CC(C)(C)CC2C34OC(=O)[C@@]21CC[C@@]3(C)[C@]1(C)CCC2C(C)(C)C(=O)CC[C@]2(C)C1C[C@@H]4Cl (some centres undefined) — outcome as called in the assay?
inactive

Lab log entry: CN1C(=O)N(C)C2(c3ccccc3)N(CC(=O)Nc3ccccc3O)C(=O)NC12c1ccccc1 (centres undefined) — outcome as called in the assay?
inactive

Lab log entry: C#CCOc1cccc(Nc2ncc3ncn(C4CCN(C(=O)CCl)C4)c3n2)c1 (centres undefined) — outcome as called in the assay?
inactive

Lab log entry: O=C(N=Nc1c(O)[nH]c2ccccc12)Nc1ccccc1Cl — outcome as called in the assay?
inactive

Lab log entry: C=C1C(=O)O[C@@H]2[C@H]3[C@H](COC(C)=O)[C@@H](OC(C)=O)C[C@H]3C(=C)[C@@H](O)C[C@@H]12 — outcome as called in the assay?
inactive

Lab log entry: Cc1nc2sc(C(=O)Nc3cccc4ccccc34)c(N)c2cc1C(=O)/C=C/c1ccccc1 — outcome as called in the assay?
active
